- experimental system: PKB α (Homo sapiens, UniProt P31749)
- Construct: purchased Upstate (Charlottesville, Va.)
- Sequence (P31749 whole entry, species assumed): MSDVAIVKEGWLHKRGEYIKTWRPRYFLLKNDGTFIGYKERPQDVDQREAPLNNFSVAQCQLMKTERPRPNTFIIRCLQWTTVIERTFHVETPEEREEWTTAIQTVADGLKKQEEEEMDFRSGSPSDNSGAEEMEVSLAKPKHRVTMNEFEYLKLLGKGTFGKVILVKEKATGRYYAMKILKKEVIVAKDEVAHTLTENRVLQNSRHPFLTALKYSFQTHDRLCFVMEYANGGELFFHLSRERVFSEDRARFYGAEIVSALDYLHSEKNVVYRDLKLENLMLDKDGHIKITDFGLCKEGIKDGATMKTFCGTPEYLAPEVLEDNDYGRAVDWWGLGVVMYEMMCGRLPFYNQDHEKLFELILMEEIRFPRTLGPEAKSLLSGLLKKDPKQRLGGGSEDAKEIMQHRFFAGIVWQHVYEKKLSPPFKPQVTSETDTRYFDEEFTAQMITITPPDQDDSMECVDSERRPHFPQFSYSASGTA
- procedure details: Broad selectivity panel, 32P incorporation
- Type: biochemical
- condition info: 0.1 μM compound, 40 μM ATP; read-out: Percent inhibition PKB α
Property: inhibition at 0.1 µM; scope: individual compounds
Kindly provide the numeric value in % only, without the unit symbol.

Fc1ccc(-c2nc3occn3c2-c2ccnc(N[C@@H]3CN4CCC3CC4)n2)cc1 :: -5
CS(=O)(=O)N1CCC(Nc2nccc(-c3c(-c4ccc(F)cc4)nc4occn34)n2)CC1 :: 5
Fc1ccc(-c2nc3occn3c2-c2ccnc(N[C@H]3CN4CCC3CC4)n2)cc1 :: -2

Please look at the following compound next.
Lab note: measured inhibition at 0.1 µM of "CC(=O)N1CCC(Nc2nccc(-c3c(-c4ccc(F)cc4)nc4occn34)n2)CC1" was -6

* * *

Property: inhibition at 0.1 µM; scope: individual molecules
- experimental system: Lck (Homo sapiens)
- Construct: purchased Upstate (Charlottesville, Va.)
- Sequence (P06239 whole entry, species assumed): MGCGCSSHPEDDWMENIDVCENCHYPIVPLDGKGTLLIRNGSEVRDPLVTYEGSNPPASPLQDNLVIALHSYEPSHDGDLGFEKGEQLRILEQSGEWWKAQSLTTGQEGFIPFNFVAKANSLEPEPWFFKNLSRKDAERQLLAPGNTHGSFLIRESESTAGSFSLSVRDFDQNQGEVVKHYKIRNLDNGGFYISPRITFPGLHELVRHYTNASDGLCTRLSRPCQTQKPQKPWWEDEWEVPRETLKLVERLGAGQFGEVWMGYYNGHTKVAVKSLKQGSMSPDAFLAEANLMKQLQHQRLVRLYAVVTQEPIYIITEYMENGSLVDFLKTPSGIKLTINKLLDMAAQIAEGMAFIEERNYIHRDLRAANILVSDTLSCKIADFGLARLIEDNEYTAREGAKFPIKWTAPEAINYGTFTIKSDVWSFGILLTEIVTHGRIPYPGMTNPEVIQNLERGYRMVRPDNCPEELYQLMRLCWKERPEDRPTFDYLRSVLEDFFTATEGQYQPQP
- procedure details: Broad selectivity panel, 32P incorporation
- Assay type: biochemical
- condition info: 0.1 μM compound, 40 μM ATP; read-out: Percent inhibition Lck
Kindly provide the numeric value in % only, without the unit symbol.

Previously resolved entries follow.
Fc1ccc(-c2nc3occn3c2-c2ccnc(N[C@@H]3CN4CCC3CC4)n2)cc1 [LXXI] :: 8
CC(=O)N1CCC(Nc2nccc(-c3c(-c4ccc(F)cc4)nc4occn34)n2)CC1 [CCLXXVIII] :: 5
Fc1ccc(-c2nc3occn3c2-c2ccnc(N[C@H]3CN4CCC3CC4)n2)cc1 [LXXXVII] :: -15
Fc1ccc(-c2nc3occn3c2-c2ccnc(NC3CCNCC3)n2)cc1 [CCLXXX] :: -3
CS(=O)(=O)N1CCC(Nc2nccc(-c3c(-c4ccc(F)cc4)nc4occn34)n2)CC1 [CCLXXIX] :: 2

Please look at the following molecule next.
Lab note: measured inhibition at 0.1 µM of CN1[C@@H]2CC[C@H]1C[C@@H](Nc1nccc(-c3c(-c4ccc(F)cc4)nc4occn34)n1)C2 [CCLXXXI] was 26

* * *

- experimental system: JNK3-His (Homo sapiens, UniProt P53779)
- Construct: His; purchased Upstate (Charlottesville, Va.)
- Sequence (P53779 whole entry): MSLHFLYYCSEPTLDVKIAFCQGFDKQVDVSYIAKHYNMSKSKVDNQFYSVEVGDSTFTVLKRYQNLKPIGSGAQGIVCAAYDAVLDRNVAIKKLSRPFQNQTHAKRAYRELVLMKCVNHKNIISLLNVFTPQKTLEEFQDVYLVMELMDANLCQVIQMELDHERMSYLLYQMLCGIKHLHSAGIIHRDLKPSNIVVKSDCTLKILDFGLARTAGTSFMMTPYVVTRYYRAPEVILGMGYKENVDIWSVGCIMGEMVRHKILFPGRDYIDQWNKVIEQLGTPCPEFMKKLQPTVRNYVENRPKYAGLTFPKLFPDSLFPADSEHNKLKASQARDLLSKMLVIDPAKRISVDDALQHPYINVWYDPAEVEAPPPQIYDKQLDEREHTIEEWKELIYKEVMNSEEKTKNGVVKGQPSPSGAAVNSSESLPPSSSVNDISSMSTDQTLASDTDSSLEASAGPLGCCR
- procedure details: Broad selectivity panel, 32P incorporation
- Assay type: biochemical
- condition info: 0.1 μM compound, 40 μM ATP; read-out: Percent inhibition JNK3-His
observable: inhibition at 0.1 µM (%)
Kindly provide the numeric value in % only, without the unit symbol.

Fc1ccc(-c2nc3occn3c2-c2ccnc(NC3CCNCC3)n2)cc1 :: 39

Item "CC(=O)N1CCC(Nc2nccc(-c3c(-c4ccc(F)cc4)nc4occn34)n2)CC1" ; assay system JNK3-His (Homo sapiens, UniProt P53779); inhibition at 0.1 µM reported as 78

Item "Fc1ccc(-c2nc3occn3c2-c2ccnc(N[C@H]3CN4CCC3CC4)n2)cc1" ; assay system JNK3-His (Homo sapiens, UniProt P53779); inhibition at 0.1 µM reported as 19

Item "CN(C)CC(C)(C)CNc1nccc(-c2c(-c3ccc(F)cc3)nc3occn23)n1" ; assay system JNK3-His (Homo sapiens, UniProt P53779); inhibition at 0.1 µM reported as 19

Item "CN1[C@@H]2CC[C@H]1C[C@@H](Nc1nccc(-c3c(-c4ccc(F)cc4)nc4occn34)n1)C2" ; assay system JNK3-His (Homo sapiens, UniProt P53779); inhibition at 0.1 µM reported as 19

Item "CS(=O)(=O)N1CCC(Nc2nccc(-c3c(-c4ccc(F)cc4)nc4occn34)n2)CC1" ; assay system JNK3-His (Homo sapiens, UniProt P53779); inhibition at 0.1 µM reported as 97

Item "Fc1ccc(-c2nc3occn3c2-c2ccnc(N[C@@H]3CN4CCC3CC4)n2)cc1" ; assay system JNK3-His (Homo sapiens, UniProt P53779); inhibition at 0.1 µM reported as -7

* * *

- experimental system: PKB α (Homo sapiens)
- Construct: purchased Upstate (Charlottesville, Va.)
- procedure details: Broad selectivity panel, 32P incorporation
- Format: biochemical
- condition info: 1 μM compound, 40 μM ATP; read-out: Percent inhibition PKB α
- Method: Various compounds of the present invention are screened against a panel of 24 additional kinases (Upstate, Charlottesville, Va.). Compounds are tested 0.1 μM and 1 μM in reactions containing 40 μM ATP. Incorporation of radiolabeled phosphate (^32P) into each kinase substrate is measured in the presence and absence of test compound. Results are reported as the percent decrease in the amount of ^32P incorporated into the substrate in the presence of compound, compared to buffer control.
Property: inhibition at 1 µM; scope: individual compounds
Kindly provide the numeric value in % only, without the unit symbol.

Fc1ccc(-c2nc3occn3c2-c2ccnc(N[C@@H]3CN4CCC3CC4)n2)cc1 :: 9

Please look at the following compound next.
Lab note: measured inhibition at 1 µM of "CC(=O)N1CCC(Nc2nccc(-c3c(-c4ccc(F)cc4)nc4occn34)n2)CC1" was 4

* * *

Property: inhibition at 0.1 µM; scope: individual compounds
- experimental system: SAPK4 (Homo sapiens, UniProt O15264)
- Construct: purchased Upstate (Charlottesville, Va.)
- Sequence (O15264 1-365): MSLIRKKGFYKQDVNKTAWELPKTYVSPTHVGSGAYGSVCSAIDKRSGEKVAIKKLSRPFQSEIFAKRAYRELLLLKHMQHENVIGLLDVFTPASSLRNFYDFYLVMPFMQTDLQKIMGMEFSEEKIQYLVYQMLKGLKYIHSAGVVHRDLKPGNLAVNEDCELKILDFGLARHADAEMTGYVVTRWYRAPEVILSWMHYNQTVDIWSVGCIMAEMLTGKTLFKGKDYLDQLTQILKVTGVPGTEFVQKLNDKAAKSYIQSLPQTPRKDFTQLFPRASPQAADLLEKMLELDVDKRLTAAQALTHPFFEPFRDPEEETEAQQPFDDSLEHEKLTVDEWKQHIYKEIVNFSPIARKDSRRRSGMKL
- procedure details: Broad selectivity panel, 32P incorporation
- Assay type: biochemical
- condition info: 0.1 μM compound, 40 μM ATP; read-out: Percent inhibition SAPK4
Kindly provide the numeric value in % only, without the unit symbol.

Previously resolved entries follow.
CS(=O)(=O)N1CCC(Nc2nccc(-c3c(-c4ccc(F)cc4)nc4occn34)n2)CC1 [CCLXXIX] :: 3
CN(C)CC(C)(C)CNc1nccc(-c2c(-c3ccc(F)cc3)nc3occn23)n1 [CXIX] :: 3
Fc1ccc(-c2nc3occn3c2-c2ccnc(NC3CCNCC3)n2)cc1 [CCLXXX] :: 0

Lab note: measured inhibition at 0.1 µM of CN1[C@@H]2CC[C@H]1C[C@@H](Nc1nccc(-c3c(-c4ccc(F)cc4)nc4occn34)n1)C2 [CCLXXXI] was 2

* * *

- experimental system: Lyn (Homo sapiens)
- Construct: purchased Upstate (Charlottesville, Va.)
- Sequence (P07948 whole entry, species assumed): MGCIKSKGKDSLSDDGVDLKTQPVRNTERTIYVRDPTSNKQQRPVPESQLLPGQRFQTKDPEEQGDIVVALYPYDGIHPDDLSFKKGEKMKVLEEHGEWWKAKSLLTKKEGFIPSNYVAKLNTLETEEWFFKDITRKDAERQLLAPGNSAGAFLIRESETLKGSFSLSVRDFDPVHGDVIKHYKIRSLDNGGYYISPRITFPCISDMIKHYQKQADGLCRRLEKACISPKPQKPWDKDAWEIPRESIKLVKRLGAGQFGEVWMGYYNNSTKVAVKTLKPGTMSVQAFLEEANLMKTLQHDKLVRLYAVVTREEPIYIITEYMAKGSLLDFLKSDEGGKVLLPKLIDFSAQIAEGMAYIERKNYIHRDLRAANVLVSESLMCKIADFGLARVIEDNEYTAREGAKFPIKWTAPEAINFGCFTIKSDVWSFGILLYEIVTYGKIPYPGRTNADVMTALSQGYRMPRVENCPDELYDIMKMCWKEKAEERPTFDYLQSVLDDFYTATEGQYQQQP
- procedure details: Broad selectivity panel, 32P incorporation
- Format: biochemical
- condition info: 1 μM compound, 40 μM ATP; read-out: Percent inhibition Lyn
Property: inhibition at 1 µM; scope: individual compounds
Kindly provide the numeric value in % only, without the unit symbol.

Previously resolved entries follow.
Fc1ccc(-c2nc3occn3c2-c2ccnc(N[C@H]3CN4CCC3CC4)n2)cc1 :: -13
CN(C)CC(C)(C)CNc1nccc(-c2c(-c3ccc(F)cc3)nc3occn23)n1 :: -12
CN1[C@@H]2CC[C@H]1C[C@@H](Nc1nccc(-c3c(-c4ccc(F)cc4)nc4occn34)n1)C2 :: 4
Fc1ccc(-c2nc3occn3c2-c2ccnc(N[C@@H]3CN4CCC3CC4)n2)cc1 :: 10
Fc1ccc(-c2nc3occn3c2-c2ccnc(NC3CCNCC3)n2)cc1 :: 27
CC(=O)N1CCC(Nc2nccc(-c3c(-c4ccc(F)cc4)nc4occn34)n2)CC1 :: -29

Please look at the following compound next.
Lab note: measured inhibition at 1 µM of "CS(=O)(=O)N1CCC(Nc2nccc(-c3c(-c4ccc(F)cc4)nc4occn34)n2)CC1" was -13

* * *

- experimental system: MEK1 (Homo sapiens)
- Construct: purchased Upstate (Charlottesville, Va.)
- Sequence (Q02750 whole entry, species assumed): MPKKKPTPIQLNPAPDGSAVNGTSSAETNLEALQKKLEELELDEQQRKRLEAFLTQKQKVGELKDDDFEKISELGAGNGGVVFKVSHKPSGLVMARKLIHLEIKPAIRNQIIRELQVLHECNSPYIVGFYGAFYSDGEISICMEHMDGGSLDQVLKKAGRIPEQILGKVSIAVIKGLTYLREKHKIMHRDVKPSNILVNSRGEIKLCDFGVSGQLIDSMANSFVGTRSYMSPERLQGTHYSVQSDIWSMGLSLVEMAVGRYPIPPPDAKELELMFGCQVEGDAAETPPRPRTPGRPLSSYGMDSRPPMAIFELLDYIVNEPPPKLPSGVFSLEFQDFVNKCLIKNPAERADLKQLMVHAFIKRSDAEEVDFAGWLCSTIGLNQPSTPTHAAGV
- procedure details: Broad selectivity panel, 32P incorporation
- Format: biochemical
- condition info: 0.1 μM compound, 40 μM ATP; read-out: Percent inhibition MEK1
observable: inhibition at 0.1 µM (%)
Kindly provide the numeric value in % only, without the unit symbol.

Previously resolved entries follow.
CN(C)CC(C)(C)CNc1nccc(-c2c(-c3ccc(F)cc3)nc3occn23)n1 [CXIX] :: -1
CS(=O)(=O)N1CCC(Nc2nccc(-c3c(-c4ccc(F)cc4)nc4occn34)n2)CC1 [CCLXXIX] :: 7
CC(=O)N1CCC(Nc2nccc(-c3c(-c4ccc(F)cc4)nc4occn34)n2)CC1 [CCLXXVIII] :: 6
Fc1ccc(-c2nc3occn3c2-c2ccnc(N[C@@H]3CN4CCC3CC4)n2)cc1 [LXXI] :: 2
Fc1ccc(-c2nc3occn3c2-c2ccnc(NC3CCNCC3)n2)cc1 [CCLXXX] :: 9

Item CN1[C@@H]2CC[C@H]1C[C@@H](Nc1nccc(-c3c(-c4ccc(F)cc4)nc4occn34)n1)C2 [CCLXXXI] ; assay system MEK1 (Homo sapiens); inhibition at 0.1 µM reported as -3

Item Fc1ccc(-c2nc3occn3c2-c2ccnc(N[C@H]3CN4CCC3CC4)n2)cc1 [LXXXVII] ; assay system MEK1 (Homo sapiens); inhibition at 0.1 µM reported as 3
